Recorded values, source ChEMBL document CHEMBL3044881.

tested on: Radical scavenging activity; assay: Antioxidant activity assessed as DPPH free radical scavenging activity at 10 uM by spectrophotometric analysis; assay type: functional
Parameter: Activity. Scope: all listed entries.

- line.notation: "COc1cc(OC)c(C(=O)/C=C/c2cccc(C#N)c2)c(O)c1Br"
  experimental.target: "Radical scavenging activity"
  readout.unit: "%"
  Activity: 27.4
- line.notation: "COc1cc(OC)c(C(=O)/C=C/c2ccccc2F)c(O)c1Br"
  experimental.target: "Radical scavenging activity"
  readout.unit: "%"
  Activity: 29.9
- line.notation: "O=C(O)c1cc(O)c(O)c(O)c1"
  experimental.target: "Radical scavenging activity"
  readout.unit: "%"
  Activity: 91
- line.notation: "COc1cc(OC)c(C(=O)/C=C/c2ccc(Cl)cc2Cl)c(O)c1Br"
  experimental.target: "Radical scavenging activity"
  readout.unit: "%"
  Activity: 17.3
- line.notation: "COc1cc(OC)c(C(=O)/C=C/c2ccc(Cl)c([N+](=O)[O-])c2)c(O)c1Br"
  experimental.target: "Radical scavenging activity"
  readout.unit: "%"
  Activity: 14.3
- line.notation: "COc1cc(OC)c(C(=O)/C=C/c2ccccc2C(F)(F)F)c(O)c1Br"
  experimental.target: "Radical scavenging activity"
  readout.unit: "%"
  Activity: 13.7

----------
test system: Blood; test: Anti-inflammatory activity in Homo sapiens (human) whole blood assessed inhibition of LPS-induced TNF-alpha production at 1 uM treated 30 min before LPS challenge measured after 5 hr; type: functional
# binarize inhibition at 1 µM: threshold 30% inclusive, high side criterion met, low side criterion not met

- compound: "COc1cc(/C=C/C(=O)c2c(OC)cc(OC)c(Br)c2O)cc(OC)c1"
  group: "criterion not met"
- compound: "COc1cc(OC)c(C(=O)/C=C/c2cccnc2)c(O)c1Br"
  group: "criterion met"
- compound: "COc1cc(OC)c(C(=O)/C=C/c2cc[nH]c2)c(O)c1Br"
  group: "criterion met"
- compound: "COc1ccc(/C=C/C(=O)c2c(OC)cc(OC)c(Br)c2O)cc1"
  group: "criterion met"
- compound: "COc1cc(OC)c(C(=O)/C=C/c2cccc([N+](=O)[O-])c2)c(O)c1Br"
  group: "criterion met"
- compound: "COc1cc(OC)c(C(=O)/C=C/c2ccc(Cl)cc2)c(O)c1Br"
  group: "criterion met"
- compound: "COc1ccc(OC)c(/C=C/C(=O)c2c(OC)cc(OC)c(Br)c2O)c1"
  group: "criterion not met"
- compound: "COc1cc(OC)c(C(=O)/C=C/c2cccc(F)c2)c(O)c1Br"
  group: "criterion met"
- compound: "COc1cc(OC)c(C(=O)/C=C/c2ccccc2Cl)c(O)c1Br"
  group: "criterion met"
- compound: "COc1cc(OC)c(C(=O)/C=C/c2ccccc2F)c(O)c1Br"
  group: "criterion not met"
- compound: "COc1cc(OC)c(C(=O)/C=C/c2ccc(Cl)c([N+](=O)[O-])c2)c(O)c1Br"
  group: "criterion met"
- compound: "COc1ccc(/C=C/C(=O)c2c(OC)cc(OC)c(Br)c2O)c(OC)c1"
  group: "criterion not met"
- compound: "COc1cc(OC)c(C(=O)/C=C/c2ccc(Cl)cc2Cl)c(O)c1Br"
  group: "criterion met"
- compound: "COc1cc(OC)c(C(=O)/C=C/c2cccc(Br)c2)c(O)c1Br"
  group: "criterion not met"
- compound: "COc1cc(OC)c(C(=O)/C=C/c2ccccc2C(F)(F)F)c(O)c1Br"
  group: "criterion not met"
- compound: "C[C@H]1C[C@H]2[C@@H]3CCC4=CC(=O)C=C[C@]4(C)[C@@]3(F)[C@@H](O)C[C@]2(C)[C@@]1(O)C(=O)CO [BETAMETHASONE]"
  group: "criterion met"
- compound: "COc1cc(OC)c(C(=O)/C=C/c2cccc(C#N)c2)c(O)c1Br"
  group: "criterion not met"
